Data provenance: PubChem BioAssay AID1159580

Assay: chemical genetic growth profiling, strain panel (AID 1159580);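 further: tested at 20 µM; growth read once vehicle control cultures reached saturation at 30 °C; 1 = growth at the plate median or of vehicle wells; lower values mean less growth of the strain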
Conditions: S. cerevisiae deletion strains, growth OD, locus YDR069C, strain doa4
Hit rate of the full screen: of about 5,500 compounds, about 2,000 (36%) were called active. Roughly 18% stayed inconclusive and do not appear here. No stated cut-off is given here; in the data, active means normalized growth mostly below about 0.91 (no sharp cut-off); inconclusive means no clear call, values can overlap the other calls; inactive means mostly above about 0.92. Some of the results follow.
Would you mind answering with one of these outcomes? YES for active, NO for inactive

• C#CCCCCCCCCCCCC(=O)CC(O)COC(C)=O (stereo not given) = NO
• NC(N)=NS(=O)(=O)c1ccc(N)cc1 = NO
• CCCCC(=O)Oc1ccccc1C(=O)O = NO

Prompt line: Tell me the recorded outcome of this test for O=C(Cn1ccnc1[N+](=O)[O-])NCCO .
Response line: NO

Prompt line: Another: Nc1ccn(C2O[C@H](CO)[C@@H](O)[C@@H]2O)c(=O)n1 (stereo not given in full)
Response line: NO

Prompt line: Another: C[N+]1(C)C2CC(OC(=O)[C@@H](CO)c3ccccc3)CC1C1OC12 (stereo not given in full)
Response line: NO

Prompt line: Another: C=C1CCC2C(CC2(C)C)C(=O)CCC1O (stereo not given)
Response line: NO

* * *

Experiment: chemical genetic growth profiling, strain panel (AID 1159580)
Settings: S. cerevisiae deletion strains, growth OD, locus YCL061C, strain MRC1, hits give low values
Hit rate of the full screen: of about 5,500 compounds, about 2,000 (36%) were called active. Inconclusive results (about 18%) are left out. Some of the results follow.
Catalogue of molecules with associated normalized growth
Respond with the number and no other words.

Example cases with answers are listed next.
- CCCCOC(=O)c1ccccc1C(=O)OCCCC: 0.984
- CCOC(=O)Nc1nc2ccccc2[nH]1: 0.992
- CC(C)[C@@H]1CC[C@@H](C)C[C@H]1O: 0.986
- CCCCN(CCCC)CCCOC(=O)c1ccc(N)cc1: 0.987
- O=C(O)CN(CC(=O)O)Cc1cc2c(-c3ccccc3C(=O)O)c3cc(CN(CC(=O)O)CC(=O)O)c(=O)cc-3oc2cc1O: 0.937
- CC[C@H](C)C(=O)O[C@H]1CCC=C2C=C[C@H](C)C(CCC3C[C@@H](O)CC(=O)O3)[C@H]21 (stereo partly drawn): 1
- CC1(C)NC(=O)N(c2ccc([N+](=O)[O-])c(C(F)(F)F)c2)C1=O: 0.976
- CSC(=NC#N)N1CCN(c2ccc([N+](=O)[O-])cn2)CC1: 1

Prompt line: normalized growth for CC(C)NC[C@H](O)COc1cccc2ccccc12 ?
Response line: 0.994

Prompt line: Another: CO/N=C(\C(=O)N[C@@H]1C(=O)N2C(C(=O)O)=C(CSc3nc(=O)c(O)nn3C)CS[C@H]12)c1csc(N)n1
Response line: 0.969

Prompt line: Another: CCNC(=O)CC[C@H](N)C(=O)O
Response line: 1

Prompt line: Another: CO/N=C(\C(=O)NC1C(=O)N2C(C(=O)OC(C)OC(C)=O)=C(COC(N)=O)CSC12)c1ccco1 (stereo not drawn)
Response line: 0.99

Prompt line: Another: NC(N)=NS(=O)(=O)c1ccc(N)cc1
Response line: 1.01

Prompt line: Another: COc1cc2c(cc1OC)C1Cc3ccc(OC)c(OC)c3CN1CC2 (stereo not drawn)
Response line: 0.983

Prompt line: Another: CO/N=C(\C(=O)NC1C(=O)N2C(C(=O)O)=C(COC(N)=O)CSC12)c1ccco1 (stereo not drawn)
Response line: 0.969

Prompt line: Another: O=S1OCC2C(CO1)C1(Cl)C(Cl)=C(Cl)C2(Cl)C1(Cl)Cl (stereo not drawn)
Response line: 0.983

* * *

Experiment: chemical genetic growth profiling, strain panel (AID 1159580)
Settings: S. cerevisiae deletion strains, growth OD, locus YNL175C, strain NOP13, hits give low values
The campaign covered roughly 5,500 compounds. About 2,000 (36%) were called active. Inconclusive results (about 18%) are left out. The list shows a part of the results.
Binarize normalized growth at 1; below is TRUE, at or above is FALSE.

• COC(=O)C1=CCCN(C)C1 = FALSE

Read the next record carefully.
Prompt line: Say whether its normalized growth is strictly beneath 1. Entry: C=C1C(=O)O[C@@H]2[C@H]3O[C@]3(C)CCC=C(C)CC[C@@H]12
Response line: TRUE

* * *

Experiment: chemical genetic growth profiling, strain panel (AID 1159580);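 further: tested at 20 µM; growth read once vehicle control cultures reached saturation at 30 °C; 1 = growth at the plate median or of vehicle wells; lower values mean less growth of the strain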
Conditions: S. cerevisiae deletion strains, growth OD, locus YLR262C, strain YPT6, hits give low values
Hit rate of the full screen: of about 5,500 compounds, about 2,000 (36%) were called active. Not shown: some 18% with an inconclusive outcome. The list shows a part of the results.
Binarize normalized growth at 1; below is Met, at or above is Not met.

The following compounds have reported results that may help.
* C=C1C(=O)OC2CC1C(OC(C)=O)C/C(C)=C/CC/C(C)=C/CC[C@]2(C)O (some centres undefined) | Met
* Cc1onc(-c2c(Cl)cccc2Cl)c1C(=O)Oc1ccc(Cl)c(Cl)c1 | Not met
* Clc1cccc(NC2=NCCS2)c1Cl | Met

Prompt line: Say whether its normalized growth is strictly beneath 1. Entry: CC(C)C(C)/C=C/C(C)C1CCC2C3=CC=C4CC(O)CCC4(C)C3CCC21C (centres undefined)
Response line: Met

Prompt line: Another: COc1ccc2c(c1O)OCC1c3cc4c(cc3OC21)OCO4 (centres undefined)
Response line: Met

Prompt line: Another: Cc1ccc(-n2cccc2)c(NC(=S)Nc2ccc(Br)cc2OC(F)(F)F)c1
Response line: Met

Prompt line: Another: C=C1C(C)C2C(Cc3ccccc3)NC(=O)C23OC(=O)/C=C/C(=O)CCCC(C)C/C=C/C3C1O (centres undefined)
Response line: Met

Prompt line: Another: NC(N)=NS(=O)(=O)c1ccc(N)cc1
Response line: Not met

* * *

Experiment: chemical genetic growth profiling, strain panel (AID 1159580);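 further: tested at 20 µM; growth read once vehicle control cultures reached saturation at 30 °C; 1 = growth at the plate median or of vehicle wells; lower values mean less growth of the strain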
Settings: S. cerevisiae deletion strains, growth OD, locus YBR135W, strain CKS1
The campaign covered roughly 5,500 compounds. About 2,000 (36%) were called active. Not shown: some 18% with an inconclusive outcome. No stated cut-off is given here; in the data, active means normalized growth mostly below about 0.91 (no sharp cut-off); inconclusive means no clear call, values can overlap the other calls; inactive means mostly above about 0.92. This is one part of the list.
Would you mind answering with one of these outcomes? Y = active, N = inactive

The following compounds have reported results that may help.
- CCc1ccn2cc(Nc3ccccc3Cl)nc2c1: N
- Cc1onc(-c2c(F)cccc2Cl)c1C(=O)ON=C1C2CC3CC(C2)CC1C3: Y
- O=C(Nc1ccc(OC(F)(F)F)cc1)N1CCN(c2nc(-c3ccccc3)ns2)CC1: N

Prompt line: Tell me the recorded outcome of this test for CC1(C)OC(=O)C(=Cc2cccn2-c2ccc(C(F)(F)F)cc2)C(=O)O1 .
Response line: N

Prompt line: Another: ClC1=C(C=Nc2ccc(Cl)cc2)CSc2ccc(Cl)cc21
Response line: N

Prompt line: Another: FC(F)(F)c1cccc(-n2c(CSCc3cccc4ccccc34)n[nH]c2=S)c1
Response line: N

Prompt line: Another: CC(C)(C)c1ccc(C(=O)NNc2c(Cl)cccc2Cl)cc1
Response line: N

Prompt line: Another: OC(CN1CCN(c2nc3ccc(Cl)cc3s2)CC1)Cn1ccc2ccccc21 (stereo not drawn)
Response line: N

Prompt line: Another: Cc1cccc(NC(=S)NNC(=O)CSCc2cccc3ccccc23)c1
Response line: N

Prompt line: Another: Cc1onc(-c2c(Cl)cccc2Cl)c1C(=O)NNc1c(Cl)cccc1Cl
Response line: N

Prompt line: Another: CCCCN(C)C(=O)c1cc([N+](=O)[O-])cc2c1-c1ccc([N+](=O)[O-])cc1C2=C(C#N)C#N
Response line: N

Prompt line: Another: COC(=O)c1sccc1-c1ccc(/C=C/[N+](=O)[O-])o1
Response line: N

Prompt line: Another: O=c1c2ccccc2[nH]c(=S)n1-c1cccc(C(F)(F)F)c1
Response line: Y

* * *

Experiment: chemical genetic growth profiling, strain panel (AID 1159580);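 further: tested at 20 µM; growth read once vehicle control cultures reached saturation at 30 °C; 1 = growth at the plate median or of vehicle wells; lower values mean less growth of the strain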
Conditions: S. cerevisiae deletion strains, growth OD, locus YLR039C, strain RIC1, hits give low values
Screen size: about 5,500 compounds; about 2,000 (36%) were called active. Another 18% or so got no clear call; they are omitted. This is one part of the list.
Measure name: normalized growth
Respond with the number and no other words.

Example cases with answers are listed next.
- CC1(C)O[C@H]2[C@H](O)C[C@](O)(C(N)=O)C[C@H]2O1: 1.25
- COc1ccc([C@H]2Oc3cc(OC)cc(OC)c3C[C@H]2O)cc1: 1.1

Prompt line: normalized growth for COc1ccc2c(c1O)OCC1c3cc4c(cc3OC21)OCO4 (stereo unspecified) ?
Response line: 0.846

Prompt line: Another: COc1ccc2c(c1OC)C(=O)OC2[C@H]1c2c(cc3c(c2OC)OCO3)CCN1C (stereo partly specified)
Response line: 0.997

Prompt line: Another: COc1ccc2c(c1)O[C@H]1c3ccc(OC)cc3OC[C@@H]21
Response line: 0.767

Prompt line: Another: CC(=O)N[C@@H](CS)C(=O)O
Response line: 1.02

Prompt line: Another: COc1ccc(CCN2CCC(Nc3nc4ccccc4n3Cc3ccc(F)cc3)CC2)cc1
Response line: 1.19

Prompt line: Another: COc1cc(-c2coc3cc(OCc4ccccc4)c(OC)c(O)c3c2=O)cc(O)c1OC
Response line: 0.86

Prompt line: Another: COc1cc(-c2coc3cc(OCc4ccccc4)c(OC)c(O)c3c2=O)cc(OCc2ccccc2)c1OC
Response line: 1.05

Prompt line: Another: Oc1ccc2c(c1)OCC1c3cc4c(cc3OC21)OCO4 (stereo unspecified)
Response line: 0.982

Prompt line: Another: N#C/C(=C\c1ccc(Oc2ccccc2)nc1)S(=O)(=O)c1ccccc1
Response line: 0.95
